This listing pairs binders with measured kon.
# experimental system: T1, Human LY6G6D ectodomain fused to mouse IgG2A Fc (monovalent display, knob-in-hole) (human, biotinylated for BLI capture (site not stated))
# T1 chain: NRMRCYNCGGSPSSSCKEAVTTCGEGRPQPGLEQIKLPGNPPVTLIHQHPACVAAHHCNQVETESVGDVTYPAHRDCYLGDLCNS
# method notes: BLI, chain shuffle round 1; antigen not named in the table (LY6G6D ectodomain as in Example 3)
attribute measured: kon (M⁻¹ s⁻¹)

binder="CP1474 (heavy chain from CB21-498, light chain from CB21-500) (antibody, V domains shown, Chain-shuffled antibody) VH: EMQLVESGGGLVQPGGSLRLSCAASGFTFSSYAMNWVRQAPGKGLECVSGISGNGGRIYYAESVKGRFTISRDNSKSTFYLQMNSLRAEDTAVYYCAKDLDVWGKGTTVTVSS VL: DVVMTQTPLSSPVTLGQPASISCRSSQNLVHSDGNTYLNWLQQRPGQPPRLLIYKISNRFSGVPDRFSGSGAGTDFTLKISRVEAEDVGVYYCMQATQFPLTFGGGTKLEIK" attribute_measured=kon result_value=141000
binder="CP1481 (heavy chain from CB21-513, light chain from CB21-500) (antibody, V domains shown, Chain-shuffled antibody) VH: EVQLVDSGGGLVEPGGSLRLSCAASGFTFSSYAMTWVRQAPGKGLEWVSGISGSGGVTDYADSVKGRFTISRDNSKNTLYMQMNSLRAEDTAVYYCAKDLGVWGKGTTVTVSS VL: DVVMTQTPLSSPVTLGQPASISCRSSQNLVHSDGNTYLNWLQQRPGQPPRLLIYKISNRFSGVPDRFSGSGAGTDFTLKISRVEAEDVGVYYCMQATQFPLTFGGGTKLEIK" attribute_measured=kon result_value=15000
binder="CP1473 (heavy chain from CB21-498, light chain from CB21-469) (antibody, V domains shown, Chain-shuffled antibody) VH: EMQLVESGGGLVQPGGSLRLSCAASGFTFSSYAMNWVRQAPGKGLECVSGISGNGGRIYYAESVKGRFTISRDNSKSTFYLQMNSLRAEDTAVYYCAKDLDVWGKGTTVTVSS VL: DVVMTQTPLSSPVTLGQSASISCRSSQSLVHSDGNTYLNWLHQRPGQPPRLLIYKISNRFSGVPDRFSGSGAGTDFTLKISRVEAEDVGVYYCMQATQFPLTFGGGTKLEIK" attribute_measured=kon result_value=152000
